test system: HCC-2998 colon; assay: NCI-60 one-dose screen, 48 h; conditions: 10 µM unless noted
The panel holds about 83,000 compounds, 20% with a hit somewhere; the sample as a whole holds those more often. Calls of active or inactive are those of the source. The calls were made as follows: active = growth percent below 10; inactive = the rest.
Outcomes: true for active, false for inactive

C=C1C(=O)O[C@H]2[C@H]1CC/C(C(=O)NCCCCCNC(=O)/C1=C/CC[C@@]3(C)O[C@H]3[C@H]3OC(=O)C(=C)[C@@H]3CC1)=C\CC[C@@]1(C)O[C@@H]21 ... false
Cc1nn(-c2ccccc2)c(Oc2c(Cl)cccc2Cl)c1/C=N/N=c1\sc2ccccc2n1C ... false
CC(C)(C)c1cc(C=O)cc(C(C)(C)C)c1O ... false
CC(=O)[C@@H]1CC[C@]2(C(N)=O)CC[C@]3(C)[C@H](CC[C@@H]4[C@@]5(C)CCCNC(C)(C)[C@@H]5CC[C@]43C)[C@@H]12 ... false
COc1ccc(C(=O)c2cc(OC)c(OC)c(OC)c2)cc1O ... false
Cn1ccnc1C(=O)/C=C/c1ccc(CC(=O)Nc2ccc(Cl)cc2)cc1 ... false
N#CC1C(C#N)C(C(=O)c2ccc(Br)cc2)N2c3ccccc3C=CC12 (stereo not drawn) ... false
CCN1C(=O)N(CC)C2Nn3c(s/c(=C\c4ccc(OC)cc4)c3=O)=NC21 (stereo not drawn) ... false
C=CCn1c(-c2ccc(-c3nc4ccc(C)cc4[nH]3)cc2)n[nH]c1=S ... false
O=C(Cn1c[n+](CC(=O)c2ccc([N+](=O)[O-])cc2)c2ccccc21)Nc1cccc2cccnc12 ... false
Oc1ccc(C(c2ccc(O)cc2)c2ccc(Br)cn2)cc1 ... true
COc1ccc(-c2cnc3c(-c4cccc5cnccc45)cnn3c2)cc1 ... false
O=C(/C=C(/C=C/c1csc2ccccc12)OB(F)F)/C=C/c1csc2ccccc12 ... false
CCOc1ccc(/C=N/Nc2cc(C)nc3ccc(Br)cc23)cc1 ... false
CCCCCC(=O)Oc1ccc(/C(=C(\C)c2ccccc2)c2ccc(OCCN3CCCCC3)cc2)cc1 ... false
Cc1ccc(S(=O)(=O)Nn2c3c(cc(-c4nc5ccccc5s4)c2=O)CCCCCC3)cc1 ... false
Oc1cccc(CCc2ccc(Oc3cc(CCc4cccc(O)c4)cc(O)c3O)cc2)c1 ... false
CCCNC(=O)Oc1ccc(/C(=C(\C)c2ccccc2)c2ccc(OCCCN(C)C)cc2)cc1 ... false
CNC(=O)c1cccc(Cn2nc(C)c(NC(=O)c3ccc(COc4ccc(C(F)(F)F)cc4C)cc3)c2C)c1 ... false
CC(=O)Nc1ccc(-c2ccc3c(c2)NC(=O)/C3=C\c2ccc[nH]2)cc1 ... false
O=C(Nc1ccc(-c2ccc3c(c2)NC(=O)/C3=C\c2ccc[nH]2)cc1)NC1CC1 ... false
CN1C(=O)NC(c2ccc3c(c2)OCO3)C=C1c1ccccc1 (stereo not drawn) ... false
Nc1n[nH]c2cccc(C#Cc3cccc(C(=O)Nc4cccc(C(F)(F)F)c4)c3)c12 ... false
O=C(NO)c1ccc(-n2nc(-c3ccccc3)c3ccccc32)cc1 ... false
Cc1ccc(-n2nc3c(c(C#N)c2=O)CC(c2ccccc2[N+](=O)[O-])C([N+](=O)[O-])=C3O)cc1 (stereo not drawn) ... false
O=C(/C=C(/C=C/c1coc2ccccc12)OB(F)F)/C=C/c1coc2ccccc12 ... false
CCc1ccc(CNc2ccc(N3CCOCC3)c(C(=O)O)c2)cc1 ... false
N#CC1=C(/N=C/c2ccccc2)Oc2c(ccc3ccccc23)C1c1ccc([N+](=O)[O-])cc1 (stereo not drawn) ... false
COc1ccc(OC)c(-c2cc(-c3ccc(Cl)cc3)c3c(N)c(C(=O)c4ccc(Cl)cc4)sc3n2)c1 ... false
O=C(C[n+]1cccc2ccccc21)c1ccc(O)c(O)c1 ... false
O=C(Cc1ccc(/C=C/C(=O)c2ncc[nH]2)cc1)Nc1ccc(Cl)cc1 ... false
O=C(CCN1CCCC1)Nc1ccc2c(Nc3ccc(F)cc3)c3ccccc3nc2c1 ... true
O=C(/C=C/c1ccc(Cl)cc1)c1ccc(NC(=O)N2CCN(c3cc4c(cc3F)c(=O)c(C(=O)O)cn4C3CC3)CC2)cc1 ... false
N/C(=N\C(N)=N\c1nc2ccccc2s1)c1cccc(Cl)c1 ... false
CCCCCC(=O)Oc1ccc(/C(=C(/C)Cc2ccc(OC)cc2)c2ccc(OCCCN(C)C)cc2)cc1 ... false
COc1cc(/C=N/O)nc(-c2ccccn2)c1 ... false
OCc1cnccc1NCCCCOc1ccc(Oc2ccccc2)cc1 ... false
O=C(/C(=C\c1ccc([N+](=O)[O-])cc1)S(=O)Cc1ccc(Cl)cc1)c1ccc(Cl)cc1 (stereo not drawn) ... false
